Ref: paper PMC7547215

Target System: UniProt Q9EQY0
Sequence (Q9EQY0 21-977): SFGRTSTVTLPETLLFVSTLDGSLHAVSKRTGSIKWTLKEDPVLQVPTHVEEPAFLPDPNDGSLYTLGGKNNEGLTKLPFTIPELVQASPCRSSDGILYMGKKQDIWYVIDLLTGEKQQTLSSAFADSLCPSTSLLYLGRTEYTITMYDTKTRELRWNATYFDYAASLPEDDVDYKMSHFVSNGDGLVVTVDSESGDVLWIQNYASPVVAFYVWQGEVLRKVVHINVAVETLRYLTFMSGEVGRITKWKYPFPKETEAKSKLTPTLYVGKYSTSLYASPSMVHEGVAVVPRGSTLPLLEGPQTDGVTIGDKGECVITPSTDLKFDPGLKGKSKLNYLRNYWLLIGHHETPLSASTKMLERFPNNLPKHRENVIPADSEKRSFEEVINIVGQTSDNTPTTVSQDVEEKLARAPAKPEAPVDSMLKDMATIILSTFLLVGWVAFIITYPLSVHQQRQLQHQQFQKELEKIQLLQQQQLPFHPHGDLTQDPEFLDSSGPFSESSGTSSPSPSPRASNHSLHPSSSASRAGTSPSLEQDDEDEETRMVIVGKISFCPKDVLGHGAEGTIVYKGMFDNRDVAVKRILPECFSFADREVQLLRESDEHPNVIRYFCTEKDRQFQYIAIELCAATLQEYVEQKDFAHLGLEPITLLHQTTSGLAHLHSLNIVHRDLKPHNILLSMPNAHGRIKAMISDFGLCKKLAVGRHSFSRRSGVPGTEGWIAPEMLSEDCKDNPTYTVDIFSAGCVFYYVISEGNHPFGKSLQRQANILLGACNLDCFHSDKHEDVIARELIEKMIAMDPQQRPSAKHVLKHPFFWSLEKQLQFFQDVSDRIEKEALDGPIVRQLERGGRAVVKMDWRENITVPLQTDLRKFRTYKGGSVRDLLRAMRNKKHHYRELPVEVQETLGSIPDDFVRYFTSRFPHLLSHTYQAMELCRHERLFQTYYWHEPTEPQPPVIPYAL
pIC50: −log10 of the molar value.
Value Type: pIC50

[[record]]
compound = "O=c1oc2c(O)c(O)cc3c(=O)oc4c(O)c(O)cc1c4c23 [EA, ellagic acid]"
readout_number = 6.57

